Test system: NCI-H460 lung
Test: NCI tumour cell line growth inhibition, 48 h
Hi there, I'd appreciate the recorded TGI for every entry that follows.
Just the number in µM, nothing appended.

Name the recorded TGI of the compound listed here: COc1ccccc1N=NC(C(=O)c1ccccc1)C(=O)c1ccccc1
82.2

Tell me TGI reported for NCCCNc1nc2ccccc2c2c(=O)c3cccc(F)c3sc12
1.77

* * *

Assignment: determine reported TGI for the given compounds.
System: HCC-2998 colon
Test: NCI tumour cell line growth inhibition, 48 h

Hello, please tell me recorded TGI for this one: [N-]=[N+]=CC(=O)OC1CCOCC1
> 100 µM

State, in one line, measured TGI of N#CC1(C#N)C(c2ccc(C3C(C#N)(C#N)C3(C#N)C#N)cc2)C1(C#N)C#N
> 100 µM

Complete the entry with TGI for C#CCCOC(=O)CC1=C(C)/C(=C/c2ccc(S(C)=O)cc2)c2ccc(F)cc21 (stereo unspecified)
22.3 µM

Look up and report measured TGI for this entry: O=c1[nH]cnc2c1ncn2C1CCC(CO)O1 (stereo unspecified)
> 1000 µM

Dear colleague, please send me the reported TGI for O=c1c(-c2ccccc2)c(SCCN2CCCC2)n(-c2ccccc2)c(=S)n1-c1ccccc1 when you can.
> 100 µM

Give me measured TGI, please, for this compound: C1CSC2=C(S1)SC1=C(S2)SC(=C2SC3=C(SC4=C(SCCS4)S3)S2)S1
> 100 µM
